testSystem: Recombinant human Src (Homo sapiens)
Construct: made in house; host or cells: baculovirus-insect cell system
Sequence (P12931 whole entry): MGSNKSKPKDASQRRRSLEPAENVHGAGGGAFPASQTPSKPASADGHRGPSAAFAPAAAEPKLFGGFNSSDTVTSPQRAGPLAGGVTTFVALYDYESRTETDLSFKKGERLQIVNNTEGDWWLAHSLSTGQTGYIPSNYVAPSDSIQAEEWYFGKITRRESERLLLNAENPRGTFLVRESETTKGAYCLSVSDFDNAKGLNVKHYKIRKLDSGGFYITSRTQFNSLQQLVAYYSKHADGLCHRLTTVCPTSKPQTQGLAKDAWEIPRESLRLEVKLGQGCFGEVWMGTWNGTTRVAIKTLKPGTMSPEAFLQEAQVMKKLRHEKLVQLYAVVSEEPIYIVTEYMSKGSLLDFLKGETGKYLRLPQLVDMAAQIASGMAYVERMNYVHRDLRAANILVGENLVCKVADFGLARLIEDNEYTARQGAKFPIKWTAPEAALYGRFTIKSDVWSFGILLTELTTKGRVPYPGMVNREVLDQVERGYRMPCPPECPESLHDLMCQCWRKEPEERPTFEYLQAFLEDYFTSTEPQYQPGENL
testProtocol: Src tyrosine kinase activity, poly E4Y / 32P-ATP phosphorylation assay
Assay type: biochemical
experimentalSetup: Table 6, Formula V compounds; compound at 15 μg/mL; read-out: % Inhibition at 15 μg/mL Src (%)
resultType: inhibition at 15 µg/mL (%)

1. COc1ccc(Oc2ccc3c(c2)[nH]c(=O)n3S(=O)(=O)c2ccc(C)cc2)cc1 [Compound 72b]	19
2. COc1ccc(Oc2ccc3c(c2)NS(=O)(=O)N3)cc1 [Compound 72d]	12
3. COc1ccc(Oc2ccc3[nH]c(=O)n(S(=O)(=O)c4ccc(C)cc4)c3c2)cc1 [Compound 72a]	21

1. COc1ccc(Oc2ccc3[nH]c(=O)[nH]c3c2)cc1 [Compound 72e]
2. COc1ccc(Oc2ccc3c(c2)NS(=O)(=O)N3S(=O)(=O)c2ccc(C)cc2)cc1 [Compound 72f]
3. COc1ccc(Oc2ccc3c(c2)n(S(=O)(=O)c2ccc(C)cc2)c(=O)n3S(=O)(=O)c2ccc(C)cc2)cc1 [Compound 72c]
Problem: // sort entries: inhibition at 15 µg/mL, high to low Give your ranking as a list of the labels in the requested order.
Solution: 3, 2, 1

Numbers sourced from patent US20060004197A1.
